SYSTEM: UniProt P48736
Sequence (P48736 whole entry, species assumed): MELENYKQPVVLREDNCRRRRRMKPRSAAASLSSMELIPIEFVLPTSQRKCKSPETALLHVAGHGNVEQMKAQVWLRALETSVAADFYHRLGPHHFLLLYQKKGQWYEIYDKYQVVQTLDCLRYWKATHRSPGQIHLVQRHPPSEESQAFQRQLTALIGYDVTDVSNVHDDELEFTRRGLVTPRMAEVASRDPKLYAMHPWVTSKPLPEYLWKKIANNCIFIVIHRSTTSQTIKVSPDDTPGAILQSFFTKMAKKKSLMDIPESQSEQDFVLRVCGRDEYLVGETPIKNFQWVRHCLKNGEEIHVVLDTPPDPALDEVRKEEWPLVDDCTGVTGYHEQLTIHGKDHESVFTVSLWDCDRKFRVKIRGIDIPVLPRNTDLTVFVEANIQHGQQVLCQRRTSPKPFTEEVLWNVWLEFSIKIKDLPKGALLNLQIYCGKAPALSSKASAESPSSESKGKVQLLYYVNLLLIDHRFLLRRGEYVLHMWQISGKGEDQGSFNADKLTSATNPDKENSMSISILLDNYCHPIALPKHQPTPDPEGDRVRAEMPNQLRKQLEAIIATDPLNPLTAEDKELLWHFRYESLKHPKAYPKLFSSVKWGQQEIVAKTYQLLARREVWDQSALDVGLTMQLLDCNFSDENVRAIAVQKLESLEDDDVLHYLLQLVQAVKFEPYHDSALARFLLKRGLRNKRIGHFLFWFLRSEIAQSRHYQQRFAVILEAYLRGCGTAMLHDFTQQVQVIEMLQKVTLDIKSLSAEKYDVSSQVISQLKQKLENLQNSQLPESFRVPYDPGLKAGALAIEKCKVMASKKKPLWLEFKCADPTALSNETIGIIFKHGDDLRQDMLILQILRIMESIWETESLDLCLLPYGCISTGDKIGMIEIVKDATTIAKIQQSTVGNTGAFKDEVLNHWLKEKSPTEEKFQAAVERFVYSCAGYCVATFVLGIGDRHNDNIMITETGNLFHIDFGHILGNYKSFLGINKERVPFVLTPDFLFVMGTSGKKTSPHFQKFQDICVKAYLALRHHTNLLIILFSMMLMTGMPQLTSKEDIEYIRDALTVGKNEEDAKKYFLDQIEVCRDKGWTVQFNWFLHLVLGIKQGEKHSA
TEST METHOD NOTES: PI3K-gamma fluorescence polarization assay
RECORDED CONDITIONS: read-out: IC50 PI3Kγ
Hi! Could you tag entries with IC50 below 5 µM as met, and those at or above as not met? Much appreciated.

CCc1nc(-c2ccc(NC(=O)Nc3ccc(C(=O)OC)cc3)cc2)nc(N2CCOCC2)n1; met
CN1CCN(c2ccc(NC(=O)Nc3ccc(-c4nc(N5C[C@@H]6C[C@H]5CO6)nc(N5C[C@@H]6C[C@H]5CO6)n4)cc3)cc2)CC1; not met
CCCCN1CCN(C(=O)c2ccc(NC(=O)Nc3ccc(-c4nc(N5CCOC[C@@H]5C)nc(N5CCOC[C@@H]5C)n4)cc3)cc2)CC1; met

IC50 strictly < 5 µM for this molecule? CC(C)Nc1nc(-c2ccc(NC(=O)Nc3ccc(OCCN(C)C)cc3)cc2)nc(N2C3CCC2COC3)n1
met

IC50 strictly < 5 µM for this molecule? Cc1ccc(-c2nc(-c3ccc(NC(=O)Nc4ccc(N5CCC(N(C)C)CC5)cc4)cc3)nc(N3CCOCC3)n2)cc1
met

IC50 strictly < 5 µM for this molecule? CN1CCN(c2ccc(NC(=O)Nc3ccc(-c4nc(-c5ccc(NC(=O)Nc6ccc(N7CCN(C)CC7)cc6)cc5)nc(N5CC6CCC(C5)O6)n4)cc3)cc2)CC1
not met
